test system: A549; assay: Cytotoxicity against human A549 cells by SRB assay; format: functional, cell-based
Could you please report measured IC50 for the items listed next?

stdin: Form field: IC50 recorded for COc1cc(-c2ccccc2)cc(Oc2c(OC)cc([C@@H](O)[C@H](O)CO)cc2OC)c1O with A549 (enter value)
stdout: 8.2 µM

stdin: Form field: IC50 recorded for COc1ccc2c(oc3c(OC)c(OC)c(O)cc32)c1O with A549 (enter value)
stdout: > 10 µM

stdin: Form field: IC50 recorded for COc1cc2c(oc3ccccc32)c(OC)c1O with A549 (enter value)
stdout: > 10 µM

stdin: Form field: IC50 recorded for COc1cc(-c2ccccc2)cc(OC)c1O with A549 (enter value)
stdout: > 10 µM

stdin: Form field: IC50 recorded for COc1cc(-c2ccccc2)cc(OC)c1OC with A549 (enter value)
stdout: > 10 µM

stdin: Form field: IC50 recorded for COc1cc(-c2ccccc2)cc(O)c1O with A549 (enter value)
stdout: > 10 µM

stdin: Form field: IC50 recorded for COc1cc(OC)cc(-c2ccccc2O)c1 with A549 (enter value)
stdout: > 10 µM
